# Tested on: human maximum recommended daily dose, FDA database
# Procedure Details: DSSTox (FDAMDD) FDA Maximum (Recommended) Daily Dose Database
# Test Parameters: TherapeuticCategory: antiadrenergic; stronger effect = lower value
Observable: maximum recommended daily dose (mmol/kg-bw/day)
Give your answer as a number; write no unit.

Dear colleague, I am looking for the recorded maximum recommended daily dose (mmol/kg-bw/day) of the following compound: c1ccc(CC2=NCCN2)cc1 0.0125

====

Property: maximum recommended daily dose (mmol/kg-bw/day); scope: individual compounds
# Test system: human maximum recommended daily dose, FDA database
# Procedure Details: DSSTox (FDAMDD) FDA Maximum (Recommended) Daily Dose Database
# Test Parameters: TherapeuticCategory: anabolic; stronger effect = lower value
Give your answer as a number; write no unit.

Some entries whose results are on file:
| Compound Structure | Readout Value |
| --- | --- |
| CC12C=CC(C(=O)O[C@H]3CC[C@H]4[C@@H]5CCC6=CC(=O)CC[C@@H]6[C@H]5CC[C@]34C)(CC1)CC2 | 0.00788 |
| CCCCCCCCCC(=O)O[C@H]1CC[C@H]2[C@@H]3CCC4=CC(=O)CC[C@@H]4[C@H]3CC[C@]12C | 0.00777 |
| C[C@]12CC[C@H]3[C@@H](CC=C4C[C@@H](O)CC[C@@]43C)[C@@H]1CC[C@@H]2O | 0.00861 |
| C[C@]12CC[C@H]3[C@@H](CCC4=CC(=O)CC[C@@H]43)[C@@H]1CC[C@@H]2O | 0.0121 |
| CC[C@]1(O)CC[C@H]2[C@@H]3CCC4=CCCC[C@@H]4[C@H]3CC[C@@]21C | 0.000231 |

Continue with the compound presented below.
Dear colleague, I am looking for the recorded maximum recommended daily dose (mmol/kg-bw/day) of the following compound: C[C@H]1CCC[C@H](O)CCCCCc2cc(O)cc(O)c2C(=O)O1 1.55e-06

====

# Test system: human maximum recommended daily dose, FDA database
# Procedure Details: DSSTox (FDAMDD) FDA Maximum (Recommended) Daily Dose Database
# Test Parameters: TherapeuticCategory: enzyme cofactor; stronger effect = lower value
# Source text: The Food and Drug Administration (FDA) Center for Drug Evaluation and Research, Office of Pharmaceutical Science, Informatics and Computational Safety Analysis Staff's Maximum Recommended Daily Dose (FDAMDD) database contains values for over 1200 pharmaceuticals listed in Martindale: The Extra Pharmacopoeia (1973, 1983, and 1993) and The Physicians' Desk Reference (1995 and 1999). […]
Observable: maximum recommended daily dose (mmol/kg-bw/day)
Give your answer as a number; write no unit.

Report maximum recommended daily dose (mmol/kg-bw/day) for C/C(=C(/CCO)SSCC1CCCO1)N(C=O)Cc1cnc(C)nc1N (stereo unspecified) tested on human maximum recommended daily dose, FDA database. 0.00419

====

# System: human maximum recommended daily dose, FDA database
# Procedure Details: DSSTox (FDAMDD) FDA Maximum (Recommended) Daily Dose Database
# Test Parameters: TherapeuticCategory: emetic; stronger effect = lower value
Observable: maximum recommended daily dose (mmol/kg-bw/day)
Give your answer as a number; write no unit.

Dear colleague, I am looking for the recorded maximum recommended daily dose (mmol/kg-bw/day) of the following compound: CN1CCc2cccc3c2[C@H]1Cc1ccc(O)c(O)c1-3 0.00625

====

# Tested on: human maximum recommended daily dose, FDA database
# Procedure Details: DSSTox (FDAMDD) FDA Maximum (Recommended) Daily Dose Database
# Test Parameters: TherapeuticCategory: antihyperthyroid; stronger effect = lower value
Observable: maximum recommended daily dose (mmol/kg-bw/day)
Give your answer as a number; write no unit.

Dear colleague, I am looking for the recorded maximum recommended daily dose (mmol/kg-bw/day) of the following compound: Cn1cc[nH]c1=S 0.00876

Where do the numbers come from? From PubChem BioAssay AID1195.
